Quick list: GI50 per entry.
Test system: UO-31 renal
Assay: NCI tumour cell line growth inhibition, 48 h

COMPOUND | GI50
O=C1c2ccccc2-c2n[nH]c3cccc1c23 | 4.02 µM
CCN(C(=O)CCl)C(C)(C)C(SSSC(c1ccc(Cl)cc1)C(C)(C)N(CC)C(=O)CCl)c1ccc(Cl)cc1 (centres undefined) | 3.88 µM
C[C@H]1[C@H](C)CC[C@]2(C(=O)O)CC[C@]3(C)C(=CC[C@@H]4[C@@]5(C)CC[C@H](OC(=O)/C=C/c6ccc(O)cc6)C(C)(C)[C@@H]5CC[C@]43C)[C@H]12 | 3.59 µM
CCC[CH2][Ge]([CH2]CCC)([CH2]CCC)[O]C(=O)C(O)c1ccccc1 (centres undefined) | 0.885 µM
O=C(OCC1OC(OC(=O)c2cc(O)c(O)c(OC(=O)c3cc(O)c(O)c(O)c3)c2)C(OC(=O)c2cc(O)c(O)c(OC(=O)c3cc(O)c(O)c(O)c3)c2)C(OC(=O)c2cc(O)c(O)c(OC(=O)c3cc(O)c(O)c(O)c3)c2)C1OC(=O)c1cc(O)c(O)c(OC(=O)c2cc(O)c(O)c(O)c2)c1)c1cc(O)c(O)c(OC(=O)c2cc(O)c(O)c(O)c2)c1 (centres undefined) | 17.4 µM
C[C@]12CCC3c4ccc(O)cc4CCC3C1Cc1ccc(O)cc12 (some centres undefined) | 11.8 µM
ICCC(c1ccccc1)(c1ccccc1)c1ccccc1 | 1.72 µM
Nc1nc(N)c2c(ccc3nccc32)[nH]1 | 4.14 µM
Nc1c(C(=O)c2cccc(CCC3(O)CCCC3)c2)cnn1-c1ccc(F)cc1 | 8.21 µM
